target: Thyrotropin-releasing hormone receptor (Homo sapiens) (UniProt P34981)
Sequence (P34981 whole entry, looked up): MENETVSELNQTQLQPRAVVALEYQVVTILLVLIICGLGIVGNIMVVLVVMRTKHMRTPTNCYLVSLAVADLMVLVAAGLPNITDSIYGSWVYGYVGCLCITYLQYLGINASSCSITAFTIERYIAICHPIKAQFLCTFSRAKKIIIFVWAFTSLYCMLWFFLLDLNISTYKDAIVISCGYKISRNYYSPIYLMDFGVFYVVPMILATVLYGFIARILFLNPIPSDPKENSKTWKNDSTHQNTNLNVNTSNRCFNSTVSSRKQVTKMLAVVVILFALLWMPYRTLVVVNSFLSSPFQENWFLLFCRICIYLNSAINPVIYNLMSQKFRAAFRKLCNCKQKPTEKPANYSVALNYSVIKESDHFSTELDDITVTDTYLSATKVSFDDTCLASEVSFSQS
experiment notes: qHTS assay to identify small molecule agonists of the thyrotropin-releasing hormone receptor (TRHR) signaling pathway (AID 1346891);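 also: HEK293 cells expressing TRHR with calcium dye readout; % is scaled to controls: 0 for no effect and ±100 for the full control effect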
assay conditions: TRHR-HEK293 calcium fluorescence, agonist mode; series mostly up to 57.6 µM
Calls of active or inactive are those of the source. Calls follow the shape of the full dose curve.
quantity measured: activation

molecule=C=CCOC(=O)CCCCCC value=inactive
molecule=CC(C)(C)NC[C@H](O)COc1cccc2c1CCCC2=O value=inactive
molecule="CC(Oc1cc(Cl)ccc1Cl)C(=O)O (stereo not drawn)" value=inactive
molecule=C/C(CC(C)C)=N\O value=inactive
molecule=O=C(O)CNC(=O)CNC(=O)CNC(=O)CSC(=O)c1ccccc1 value=inactive
molecule=CCCCCCCCCCCCCBr value=inactive
molecule=O=C1c2ccccc2C(=O)c2cc(Cl)ccc21 value="0.0495% [at 5.23 µM] (inactive)"
molecule=[O-][n+]1cccc(/C(Cl)=N/OC[C@@H](O)CN2CCCCC2)c1 value=inactive
molecule="CCCC(=O)OCCC(C)CCC=C(C)C (stereo not drawn)" value=inactive
molecule="CCN1CCCC1CN (stereo not drawn)" value=inactive
molecule=CC(C)Cn1cnc2c1c(=O)n(C)c(=O)n2C value=inactive
molecule=CC1(C)[C@H]2CC[C@](C)(C2)[C@H]1O value=inactive
molecule=CC(=O)CC(=O)OC(C)(C)C value=inactive
molecule=O=C1NC(c2ccccc2)(c2ccccc2)C(=O)N1COP(=O)(O)O value=inactive
molecule=COc1nc(N)nc2nc[nH]c12 value=inactive
molecule="OC1OCCOC1O (stereo not drawn)" value=inactive
molecule=COc1cc2c(cc1OC)CN(C(=O)[C@H](C)N[C@@H](CCc1ccccc1)C(=O)O)[C@H](C(=O)O)C2 value=inactive
molecule=CO[Si](CCCn1c(=O)n(CCC[Si](OC)(OC)OC)c(=O)n(CCC[Si](OC)(OC)OC)c1=O)(OC)OC value=inactive
molecule=Cc1c(N)cccc1Cl value=inactive
molecule="OC[C@@H](O)C(O)[C@@H](O)CO (stereo partly drawn)" value=inactive
molecule="CC(=O)O[C@@H]1CC2CCC1(C)C2(C)C (stereo partly drawn)" value=inactive
molecule=CC1=NN(c2ccc(S(=O)(=O)O)cc2)C(=O)C1 value=inactive
molecule=NCc1ccc(S(N)(=O)=O)cc1 value=inactive
molecule=CC1=C(C(=O)O)N2C(=O)[C@@H](NC(=O)[C@H](N)c3ccccc3)[C@H]2SC1 value=inactive
molecule=CCCCCCCCCCOC(C)=O value=inactive
molecule=O=C1CCCCO1 value=inactive
molecule=CN(C)CCCCl value=inactive
molecule="CN(C)CCOC(=O)C(c1ccccc1)C1(O)CCCC1 (stereo not drawn)" value=inactive
